Molecular target: T1, 4H2915-bH
T1 chain: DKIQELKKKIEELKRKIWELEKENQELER
Test: two-hybrid library CCNG1;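 also: natural log of median RNA to DNA barcode read ratio; higher means stronger binding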
measurement kind: interaction score
Give bare numbers.

Observe how each entry below is paired with its result.
{"binder": "DKIQELKKENEELEREIWELEKENQELKR [4H2692-bH]", "interaction score": 0.971}
{"binder": "DKIQELKKEIEELERENWELKKENQELKR [4H2588-bH]", "interaction score": 1.07}
{"binder": "DKIQELEKENEELERKIWELKKKNQELER [4H2223-bH]", "interaction score": 0.816}
{"binder": "DEIQELEKEIEELKRKNWELKKEIQELER [4H121-bH]", "interaction score": 0.235}

Give one value of interaction score per listed binder.
1. DKIQELKKKIEELKRKIWELEKENQELER [4H2915-bH]
2. DKIQELEKKNEELERKIWELKKEIQELER [4H2473-bH]
3. DKIQELEKKNEELEREIWELEKKIQELKR [4H2438-bH]
4. DKIQELEKKNEELKREIWELEKKNQELER [4H2503-bH]
5. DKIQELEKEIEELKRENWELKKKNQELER [4H2143-bH]
6. DKIQELKKKIEELERENWELEKKNQELER [4H2839-bH]
7. DKIQELKKENEELERENWELKKKIQELER [4H2717-bH]
8. DEIQELEKENEELERKNWELEKKIQELKR [4H182-bH]

Ans.
[0.772, 0.134, 1.73, 0.0935, -0.577, 0.242, -0.399, 0.801]

Qu. Looking for the measured interaction score of DKIQELEKEIEELKRENWELEKKIQELKR [4H2134-bH] , can you help?
Ans. 1.56

Entry source: paper PMC10397247
